target.under.test: ShKAI2iB F194A (Striga hermonthica, UniProt A0A0M3PN85, C270S/F194A)
Sequence (A0A0M3PN85 1-270 F194A/C270S): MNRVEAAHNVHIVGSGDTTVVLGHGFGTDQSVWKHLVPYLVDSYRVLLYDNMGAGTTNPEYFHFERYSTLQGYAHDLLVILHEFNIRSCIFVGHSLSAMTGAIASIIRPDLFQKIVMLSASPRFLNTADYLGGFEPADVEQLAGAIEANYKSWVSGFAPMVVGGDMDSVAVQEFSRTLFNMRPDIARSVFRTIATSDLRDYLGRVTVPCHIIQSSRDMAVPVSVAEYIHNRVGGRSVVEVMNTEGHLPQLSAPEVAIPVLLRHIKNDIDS
assay.details: ITC binding to ShKAI2iB F194A mutant
Protocol: The coding sequence cDNA of ShKAI2iB was amplified by PCR using total complementary DNA from the total RNA of 1-day conditioned Striga seeds. ShKAI2iB (1–270, C270S) was designed for crystallization and other assays. […] Purified ShKAI2iB was dialyzed against buffer B (20 mM HEPES-NaOH, pH 8.0, 50 mM NaCl) for the ITC experiments and the intrinsic fluorescence assay. […]
recorded.metric: Kd (µM)
Number in µM, nothing else.

**Q:** Kd lookup needed for Cc1c2ccocc-2oc1=O [KAR1, 3-methyl-2H-furo [2,3-c] pyran-2-one] , thanks.
**A:** 107
